target: P450 BM3 (Priestia megaterium, UniProt P14779); experiment: P450 BM3 catalysed oxidation of butane and propane in the presence of additives; format: biochemical, Bacillus megaterium; parameters: polyhistidine (His6) tag from vector pETM11 (N); made in house; host or cells: E. coli BL21 (DE3) GOLD; conditions: Butane, 10 bar, 1 mM additive, 2.3 μM enzyme, 17.5 h, 25° C
Sequence (P14779 whole entry): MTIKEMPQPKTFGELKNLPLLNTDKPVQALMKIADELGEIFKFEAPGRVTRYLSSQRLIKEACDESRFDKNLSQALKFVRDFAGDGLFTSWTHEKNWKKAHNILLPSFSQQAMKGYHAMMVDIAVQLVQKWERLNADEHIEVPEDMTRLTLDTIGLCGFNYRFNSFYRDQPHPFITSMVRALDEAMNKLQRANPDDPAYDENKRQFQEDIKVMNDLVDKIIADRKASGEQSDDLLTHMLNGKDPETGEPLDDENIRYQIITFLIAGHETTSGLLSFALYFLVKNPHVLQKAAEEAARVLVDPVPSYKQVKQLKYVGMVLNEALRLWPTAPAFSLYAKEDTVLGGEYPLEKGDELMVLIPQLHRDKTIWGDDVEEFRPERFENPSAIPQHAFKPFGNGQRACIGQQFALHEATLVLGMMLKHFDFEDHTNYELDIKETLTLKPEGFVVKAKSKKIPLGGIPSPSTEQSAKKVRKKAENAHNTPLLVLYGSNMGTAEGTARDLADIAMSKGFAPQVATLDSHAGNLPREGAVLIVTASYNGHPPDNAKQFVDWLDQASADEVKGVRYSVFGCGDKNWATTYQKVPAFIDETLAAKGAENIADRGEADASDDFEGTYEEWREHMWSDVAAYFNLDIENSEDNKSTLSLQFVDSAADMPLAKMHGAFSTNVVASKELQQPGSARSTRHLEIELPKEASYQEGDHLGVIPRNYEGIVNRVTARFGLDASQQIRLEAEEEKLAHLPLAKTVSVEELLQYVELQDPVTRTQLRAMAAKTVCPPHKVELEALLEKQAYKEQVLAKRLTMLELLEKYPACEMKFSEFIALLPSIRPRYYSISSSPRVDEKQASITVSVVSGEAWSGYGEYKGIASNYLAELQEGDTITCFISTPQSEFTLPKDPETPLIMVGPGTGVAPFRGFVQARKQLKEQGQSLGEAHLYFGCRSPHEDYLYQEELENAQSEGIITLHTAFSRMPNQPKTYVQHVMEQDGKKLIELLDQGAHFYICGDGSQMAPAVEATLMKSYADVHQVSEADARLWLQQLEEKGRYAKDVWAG
Recorded measurements of TON, one per entry
recorded endpoint: TON

O=C(O)C(F)(F)F	469
O=C(O)C(F)(F)C(F)(F)C(F)(F)C(F)(F)C(F)(F)C(F)(F)F	3632
O=C(O)C(F)(F)C(F)(F)C(F)(F)C(F)(F)C(F)(F)C(F)(F)C(F)(F)C(F)(F)C(F)(F)F	1699
O=C(O)C(F)(F)C(F)(F)C(F)(F)C(F)(F)C(F)(F)C(F)(F)C(F)(F)C(F)(F)C(F)(F)C(F)(F)F	2519
O=C(O)C(F)(F)C(F)(F)C(F)(F)C(F)(F)C(F)(F)C(F)(F)C(F)(F)C(F)(F)F	879

###

Target: P450 BM3 (Priestia megaterium)
Assay: P450 BM3 catalysed oxidation of methane to methanol in the presence of an additive
Type: biochemical, Bacillus megaterium
Set-up: polyhistidine (His6) tag from vector pETM11 (N); made in house; host or cells: E. coli BL21 (DE3) GOLD
Conditions: 7% methane, 8% O2, 85% N2, 10 bar, 1 mM additive, 1.3 μM enzyme, 21 h, 25° C
Method: The hydroxylation of gaseous alkanes was carried out in a self-constructed low-pressure reactor. […] Subsequently the reaction vessels were linked to a gas bottle via a multichannel gas feed. […] At the end of the reaction the pressure was carefully released from the reaction vessels, a 1 ml aliquot was centrifuged for 10 min at 13 000 rpm and analyzed by HPLC. […] The reaction of dodecanoic acid was analyzed using decanoic acid (1 mM final concentration, from a 100 mM stock in DMSO) as standard. […]
recorded endpoint: Total product formed (methanol) (mM)

O=C(O)C(F)(F)C(F)(F)C(F)(F)C(F)(F)C(F)(F)C(F)(F)C(F)(F)C(F)(F)C(F)(F)F [Additive 1d, perfluorodecanoic acid]	3.31
O=C(O)C(F)(F)C(F)(F)C(F)(F)C(F)(F)C(F)(F)C(F)(F)C(F)(F)C(F)(F)F [Additive 1c, perfluorononanoic acid]	2.75
O=C(O)C(F)(F)C(F)(F)C(F)(F)C(F)(F)C(F)(F)C(F)(F)C(F)(F)C(F)(F)C(F)(F)C(F)(F)C(F)(F)C(F)(F)F [Additive 1g, perfluorotridecanoic acid]	0.75
O=C(O)C(F)(F)C(F)(F)C(F)(F)C(F)(F)C(F)(F)C(F)(F)C(F)(F)C(F)(F)C(F)(F)C(F)(F)C(F)(F)F [Additive 1f, perfluorododecanoic acid]	1.25
O=C(O)C(F)(F)C(F)(F)C(F)(F)C(F)(F)C(F)(F)C(F)(F)C(F)(F)C(F)(F)C(F)(F)C(F)(F)F [Additive 1e, perfluoroundecanoic acid]	1.81
O=C(O)C(F)(F)C(F)(F)C(F)(F)C(F)(F)C(F)(F)C(F)(F)C(F)(F)C(F)(F)C(F)(F)C(F)(F)C(F)(F)C(F)(F)C(F)(F)F [Additive 1h, perfluorotetradecanoic acid]	0.28
